All values here come from patent US12486259B2.

ALT, 4 weeks values by entry
Test system: C57/BL6 mice fed MCD diet
assay_details: Pharmacodynamic test in methionine-choline deficient diet (MCD) model of non-alcoholic fatty liver disease
Type: in vivo
assay_context: MCD mice, blood, 4 weeks; TM 30 mpk, obeticholic acid 40 mpk, gavage

{"compound": "CC[C@H]1[C@@H](O)[C@@H]2[C@H](CC[C@]3(C)[C@@H]([C@H](C)CCC(=O)O)CC[C@@H]23)[C@@]2(C)CC[C@@H](O)C[C@@H]12 [obeticholic acid, reference compound]", "ALT, 4 weeks": "93.37 ± 10.36 U/L"}
{"compound": "O=C(O)c1cccc(C2CC(O)(c3cnc(OCc4c(-c5c(Cl)cccc5Cl)noc4C4CC4)cn3)C2)c1 (centres unmarked) [TM-01]", "ALT, 4 weeks": "14.28 ± 13.21 U/L"}
{"compound": "CC(C)c1onc(-c2c(Cl)cccc2Cl)c1COc1cnc(C2(O)CC(c3cccc(C(=O)O)c3)C2)cn1 (centres unmarked) [TM-06]", "ALT, 4 weeks": "49.13 ± 33.04 U/L"}
{"compound": "Cc1cc(C(=O)O)cc(C2CC(O)(c3cnc(OCc4c(-c5c(Cl)cccc5Cl)noc4C(C)C)cn3)C2)c1 (centres unmarked) [TM-09]", "ALT, 4 weeks": "14.30 ± 4.19 U/L"}
{"compound": "O=C(O)c1cccc(N2CC(O)(c3cnc(OCc4c(-c5c(Cl)cccc5Cl)noc4C4CC4)cn3)C2)c1 [TM-02]", "ALT, 4 weeks": "90.68 ± 42.13 U/L"}
